- Target under test: Peroxisome proliferator-activated receptor gamma (Homo sapiens) (UniProt P37231)
- Sequence (P37231 whole entry, looked up): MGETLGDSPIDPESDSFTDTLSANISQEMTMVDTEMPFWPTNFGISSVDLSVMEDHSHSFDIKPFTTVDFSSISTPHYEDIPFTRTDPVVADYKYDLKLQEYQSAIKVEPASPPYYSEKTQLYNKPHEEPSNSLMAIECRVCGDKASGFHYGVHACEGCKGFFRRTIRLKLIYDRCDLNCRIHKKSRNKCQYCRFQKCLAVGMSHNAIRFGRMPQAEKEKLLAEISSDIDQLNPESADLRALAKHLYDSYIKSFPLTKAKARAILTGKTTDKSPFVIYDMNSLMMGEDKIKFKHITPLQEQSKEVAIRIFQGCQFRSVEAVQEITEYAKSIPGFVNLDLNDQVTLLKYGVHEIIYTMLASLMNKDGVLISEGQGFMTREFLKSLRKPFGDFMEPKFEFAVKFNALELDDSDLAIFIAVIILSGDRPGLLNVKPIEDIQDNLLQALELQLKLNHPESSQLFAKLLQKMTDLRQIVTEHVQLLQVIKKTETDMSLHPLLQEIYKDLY
- Experimental protocol: qHTS assay to identify small molecule antagonists of the peroxisome proliferator-activated receptor gamma (PPARg) signaling pathway (AID 743191); further: nearly all actives have a fitted effect of over 30% in size
- Experimental context: HEK293H PPARg-UAS-bla, beta-lactamase ratio, antagonist, 17 h; series mostly up to 62.6 µM
Inconclusive results are not listed. Active and inactive are the calls of the source. The call rests on the fitted dose curve.
Pick one: label 1 (active), label 0 (inactive)

Please review the following examples before continuing.
COc1cc([C@@H]2c3cc4c(cc3[C@H](O)[C@H]3COC(=O)[C@H]23)OCO4)cc(OC)c1OC; label 0
NNc1ccc(C(=O)O)cc1; label 0
CCCc1c(OCCCCc2nn[nH]n2)ccc(C(C)=O)c1O; label 1
CC(CCC(=O)O)(c1ccc(O)cc1)c1ccc(O)cc1; label 0
C=CC(C)(CCC=C(C)C)OC(C)=O (stereo unspecified); label 0

Okay, next one:
Dear colleague, could you share the recorded outcome for `CCCCCCCCCC(=O)OC` when you have a moment? label 0

* * *

- Experimental protocol: qHTS assay to identify small molecule agonists of the sonic hedgehog signaling (Shh) pathway - cell viability counter screen (AID 1259366); further: nearly all actives have a fitted effect of over 50% in size
- Experimental context: NIH/3T3 Gli1-Luc viability, CellTiter-Fluor, 24 h; series mostly up to 92.4 µM
Results filed as inconclusive are left out. Calls of active or inactive are those of the source. The call rests on the fitted dose curve; in most records, active means well fitted cell-killing curve with a large enough effect in the repeat runs; inconclusive means weak or mixed curves, or effect the other way; inactive means flat fitted curve, though single readings scatter.
Pick one: Yes for active, No for inactive

CC1=CCC(C(C)(C)O)CC1 (stereo unspecified); No
COc1ccccc1/C=C/C=O; No
Nc1ccc(S(=O)(=O)Nc2cnc3ccccc3n2)cc1; No
CCCCOCCOCCOCCO; No
CC(C)=CCCC(C)CCO (stereo unspecified); No

Dear colleague, could you share the recorded outcome for `NNc1ccc(C(=O)O)cc1` when you have a moment? No

Dear colleague, could you share the recorded outcome for `C#C[C@]1(O)CC[C@H]2[C@@H]3CCC4=Cc5oncc5C[C@]4(C)[C@H]3CC[C@@]21C` when you have a moment? No

Dear colleague, could you share the recorded outcome for `O=S(=O)(O)c1ccc(O)cc1` when you have a moment? No

Dear colleague, could you share the recorded outcome for C=CC(C)(CCC=C(C)C)OC(C)=O (stereo unspecified) when you have a moment? No

Dear colleague, could you share the recorded outcome for `CCOC(=O)C(C#N)=C(c1ccccc1)c1ccccc1` when you have a moment? No

Dear colleague, could you share the recorded outcome for `c1ccncc1` when you have a moment? No

Dear colleague, could you share the recorded outcome for COc1ccc(OC)c(C(O)CNC(=O)CN)c1 (stereo unspecified) when you have a moment? No

Dear colleague, could you share the recorded outcome for CCCCC(CC)COCC1CO1 (stereo unspecified) when you have a moment? No

Dear colleague, could you share the recorded outcome for `CN(C)C(=N)N=C(N)N` when you have a moment? No

Dear colleague, could you share the recorded outcome for `CC(C)Oc1ccc2c(=O)c(-c3ccccc3)coc2c1` when you have a moment? No

* * *

- Experimental protocol: qHTS assay for small molecules that induce genotoxicity in human embryonic kidney cells expressing luciferase-tagged ATAD5 (AID 651632); further: nearly all actives have a fitted effect of over 15% in size
- Experimental context: HEK293T ATAD5-luciferase induction, 16 h; series mostly up to 83.3 µM
Inconclusive results are not listed. Active and inactive are the calls of the source. The call rests on the fitted dose curve; in most records, active means well fitted activation curve with a large enough effect in the repeat runs; inconclusive means weak or mixed curves; inactive means no such curve, though single readings can be large or run the other way.
Pick one: active, inactive

Please review the following examples before continuing.
Nc1ccc(S(=O)(=O)Nc2cnc3ccccc3n2)cc1; inactive
Brc1cc(Oc2cc(Br)c(Br)c(Br)c2Br)c(Br)c(Br)c1Br; inactive
O=C(/C=C/c1ccccc1)OCc1ccccc1; inactive
CN(C)c1nc(N(C)C)nc(N(C)C)n1; inactive
CCOCCOCCO; inactive
CN(C)CCC=C1c2ccccc2CCc2ccccc21; inactive

Okay, next one:
Dear colleague, could you share the recorded outcome for `CCCCOCCOCCO` when you have a moment? inactive
